Reference for the values: patent US20260083865A1

Items are presented alongside their recorded Kd.
target: Fc-fusion protein of human PSMA (hPSMA-Fc) (Homo sapiens); construct: purchased Acro Biosystems PSA-H5264; assay: Surface plasmon resonance assay (Biacore T200, single cycle kinetic); assay type: binding; conditions: pKD category for PSMA SPR activity assay, hPSMA-Fc, 25° C.; read-out: pKD CAT (converted)
Numbered stars: 1 amine (or outer) side, 2 acyl side, 3 side chain; on linkers, the order of the positions; unused ones are H or OH. Bridge positions count the residues as written; N and C are the ends. Square brackets hold non-standard residues; d marks the D form. Peptide text beside a SMILES is read from it. * marks the point of attachment. ξ: configuration not given here. DOTA = O=C(O)CN1CCN(CC(=O)O)CCN(CC(=O)*)CCN(CC(=O)O)CC1; Phe(3-Cl) = N[C@@H](Cc1cccc(Cl)c1)C(=O)O; X1 = O=C(CC1CCN([*:1])CC1)[*:2]; Cit = NC(=O)NCCC[C@H](N)C(=O)O; Tle = CC(C)(C)[C@H](N)C(=O)O; Nle = CCCC[C@H](N)C(=O)O; Aib = CC(C)(N)C(=O)O; ξP = O=C(O)C1CCCN1

# compound, Kd
data = [
    ("C[C@@H](O)[C@H](NC(=O)[C@@H](NC(=O)[C@@H]1CSSC[C@H](NC(=O)[C@H](Cc2cccc(Cl)c2)NC(=O)C(C)(C)NC(=O)[C@@H](NC(=O)CC2CCN(C(=O)CN3CCN(CC(=O)O)CCN(CC(=O)O)CCN(CC(=O)O)CC3)CC2)[C@@H](C)O)C(=O)N[C@@H](CCCCN)C(=O)N[C@@H](CCCNC(N)=O)C(=O)NC(C)(C)C(=O)N[C@@H](CC(N)=O)C(=O)N1)C(C)(C)C)C(N)=O [PSM-0431] ({DOTA}-[X1]T[Aib][Phe(3-Cl)]CK[Cit][Aib]NC[Tle]T-NH2; disulfide 5-10)", "< 12.6 nM"),
    ("CC(=O)N[C@H](C(=O)NC(C)(C)C(=O)N[C@@H](Cc1ccccc1)C(=O)N[C@H]1CSSC[C@@H](C(=O)N[C@H](C(=O)N2CCCC2C(N)=O)C(C)(C)C)NC(=O)[C@H](CC(N)=O)NC(=O)C(C)(C)NC(=O)[C@H](CCCNC(=N)N)NC(=O)[C@H](CCCCN)NC1=O)[C@@H](C)O (stereo partly drawn) [PSM-0388] (Ac-T[Aib]FCKR[Aib]NC[Tle][ξP]-NH2; disulfide 4-9)", "< 12.6 nM"),
    ("CCCC[C@H](NC(=O)[C@@H]1CSSC[C@H](NC(=O)[C@H](Cc2ccccc2)NC(=O)[C@H](C)NC(=O)[C@@H](NC(C)=O)[C@@H](C)O)C(=O)N[C@@H](CCCCN)C(=O)N[C@@H](CCCNC(=N)N)C(=O)N[C@@H](C)C(=O)N[C@@H](CC(N)=O)C(=O)N1)C(=O)N[C@@H](C)C(=O)N[C@@H](CC(=O)O)C(N)=O [PSM-0476] (Ac-TAFCKRANC[Nle]AD-NH2; disulfide 4-9)", "126 to 501 nM"),
]

====

target: Fc-fusion protein of human PSMA (hPSMA-Fc) (Homo sapiens, UniProt Q04609); construct: purchased Acro Biosystems PSA-H5264; assay: Surface plasmon resonance assay (Biacore T200, single cycle kinetic); format: binding; conditions: SPR, hPSMA-Fc, single cycle kinetic, 25° C.; category; read-out: pKD CAT (converted)
Sequence (Q04609 44-750 limits assumed): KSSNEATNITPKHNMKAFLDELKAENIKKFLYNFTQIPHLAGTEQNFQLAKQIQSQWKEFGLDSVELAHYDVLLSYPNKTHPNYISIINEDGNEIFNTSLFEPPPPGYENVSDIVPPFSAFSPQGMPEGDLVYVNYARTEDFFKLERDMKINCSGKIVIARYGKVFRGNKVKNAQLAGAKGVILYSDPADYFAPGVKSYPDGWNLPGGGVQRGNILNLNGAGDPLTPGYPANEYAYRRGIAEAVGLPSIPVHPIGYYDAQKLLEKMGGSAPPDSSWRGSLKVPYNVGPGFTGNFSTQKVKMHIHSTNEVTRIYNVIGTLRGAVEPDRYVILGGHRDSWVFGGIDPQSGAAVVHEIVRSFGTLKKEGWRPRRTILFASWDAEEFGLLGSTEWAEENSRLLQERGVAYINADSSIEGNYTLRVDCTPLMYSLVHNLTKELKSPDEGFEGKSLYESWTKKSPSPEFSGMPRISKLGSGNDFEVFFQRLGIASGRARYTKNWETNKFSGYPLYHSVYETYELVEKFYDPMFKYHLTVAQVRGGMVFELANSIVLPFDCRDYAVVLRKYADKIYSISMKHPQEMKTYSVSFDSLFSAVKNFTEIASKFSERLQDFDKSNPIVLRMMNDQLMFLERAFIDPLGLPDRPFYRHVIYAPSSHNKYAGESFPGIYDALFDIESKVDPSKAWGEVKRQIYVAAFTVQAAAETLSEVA
Numbered stars: 1 amine (or outer) side, 2 acyl side, 3 side chain; on linkers, the order of the positions; unused ones are H or OH. Bridge positions count the residues as written; N and C are the ends. Square brackets hold non-standard residues; d marks the D form. Peptide text beside a SMILES is read from it. * marks the point of attachment. DOTA = O=C(O)CN1CCN(CC(=O)O)CCN(CC(=O)*)CCN(CC(=O)O)CC1; Phe(4-Cl) = N[C@@H](Cc1ccc(Cl)cc1)C(=O)O; Arg(Me) = CNC(=N)NCCC[C@H](N)C(=O)O; X1 = O=C(CC1CCN([*:1])CC1)[*:2]; Lys(Me) = CNCCCC[C@H](N)C(=O)O; Tle = CC(C)(C)[C@H](N)C(=O)O; Aib = CC(C)(N)C(=O)O

# compound, system.tested, Kd
rows = [
    ("CNCCCC[C@@H]1NC(=O)[C@@H](NC(=O)[C@H](Cc2ccc(Cl)cc2)NC(=O)C(C)(C)NC(=O)[C@@H](NC(=O)CC2CCN(C(=O)CN3CCN(CC(=O)O)CCN(CC(=O)O)CCN(CC(=O)O)CC3)CC2)[C@@H](C)O)CSSC[C@@H](C(=O)N[C@H](C(=O)N[C@H](C(N)=O)[C@@H](C)O)C(C)(C)C)NC(=O)[C@H](CC(N)=O)NC(=O)C(C)(C)NC(=O)[C@H](CCCNC(=N)NC)NC1=O [PSM-0194] ({DOTA}-[X1]T[Aib][Phe(4-Cl)]C[Lys(Me)][Arg(Me)][Aib]NC[Tle]T-NH2; disulfide 5-10)", "Fc-fusion protein of human PSMA (hPSMA-Fc) (Homo sapiens, UniProt Q04609)", "< 12.6 nM"),
]

====

Items are presented alongside their recorded IC50.
target: PSMA-expressing C4-2 cells (Homo sapiens); construct: PSMA-expressing C4-2 cells (ATCC, Cat. No. CRL-3314) were cultured in RPMI-1640; host or cells: C4-2 cells; assay: FACS binding assay (competition with 50 nM PSM-0183); conditions: FACS binding, C4-2 cells, competition with 50 nM PSM-0183; category; read-out: pIC50 [C4-2] CAT (converted)
Sequence (Q04609 whole entry): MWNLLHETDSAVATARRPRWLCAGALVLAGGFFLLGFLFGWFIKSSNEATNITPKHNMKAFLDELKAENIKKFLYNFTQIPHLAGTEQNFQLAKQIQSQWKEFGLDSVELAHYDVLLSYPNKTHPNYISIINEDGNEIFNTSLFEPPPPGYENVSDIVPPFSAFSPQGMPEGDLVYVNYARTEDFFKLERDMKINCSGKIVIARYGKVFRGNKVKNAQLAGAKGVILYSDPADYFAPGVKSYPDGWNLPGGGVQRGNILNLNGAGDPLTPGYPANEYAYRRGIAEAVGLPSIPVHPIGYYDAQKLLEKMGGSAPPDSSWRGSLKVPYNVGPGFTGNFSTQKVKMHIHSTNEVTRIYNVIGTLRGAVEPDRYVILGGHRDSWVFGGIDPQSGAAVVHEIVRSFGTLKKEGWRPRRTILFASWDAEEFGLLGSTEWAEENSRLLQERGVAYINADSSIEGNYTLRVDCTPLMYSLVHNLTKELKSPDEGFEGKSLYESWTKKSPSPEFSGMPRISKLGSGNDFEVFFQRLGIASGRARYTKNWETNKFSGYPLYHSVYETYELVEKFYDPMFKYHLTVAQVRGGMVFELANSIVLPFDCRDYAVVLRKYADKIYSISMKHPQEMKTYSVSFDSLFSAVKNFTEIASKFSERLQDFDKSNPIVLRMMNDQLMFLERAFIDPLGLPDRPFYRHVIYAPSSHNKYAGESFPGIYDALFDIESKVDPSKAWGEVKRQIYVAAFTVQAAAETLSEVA
Numbered stars: 1 amine (or outer) side, 2 acyl side, 3 side chain; on linkers, the order of the positions; unused ones are H or OH. Bridge positions count the residues as written; N and C are the ends. Square brackets hold non-standard residues; d marks the D form. Peptide text beside a SMILES is read from it. * marks the point of attachment. DOTA = O=C(O)CN1CCN(CC(=O)O)CCN(CC(=O)*)CCN(CC(=O)O)CC1; Ethylenediamine = C(CN[*:2])N[*:1]; 3Pal = N[C@@H](Cc1cccnc1)C(=O)O; X1 = O=C(CC1CCN([*:1])CC1)[*:2]; Cit = NC(=O)NCCC[C@H](N)C(=O)O; Tle = CC(C)(C)[C@H](N)C(=O)O; 4Amb = NCc1ccc(C(=O)O)cc1; Aib = CC(C)(N)C(=O)O
observation.type: IC50

# compound, system.tested, data.value
rows = [
    ("C[C@@H](O)[C@H](NC(=O)[C@@H](NC(=O)[C@@H]1CSSC[C@H](NC(=O)[C@H](Cc2cccnc2)NC(=O)C(C)(C)NC(=O)[C@@H](NC(=O)CC2CCN(C(=O)CN3CCN(CC(=O)O)CCN(CC(=O)O)CCN(CC(=O)O)CC3)CC2)[C@@H](C)O)C(=O)N[C@@H](CCCCN)C(=O)N[C@@H](CCCNC(N)=O)C(=O)NC(C)(C)C(=O)N[C@@H](CC(N)=O)C(=O)N1)C(C)(C)C)C(N)=O [PSM-0255] ({DOTA}-[X1]T[Aib][3Pal]CK[Cit][Aib]NC[Tle]T-NH2; disulfide 5-10)", "PSMA-expressing C4-2 cells (Homo sapiens)", "1260 to 3160 nM"),
    ("CC(C)(NC(=O)c1ccc(CNC(=O)CN2CCN(CC(=O)O)CCN(CC(=O)O)CCN(CC(=O)O)CC2)cc1)C(=O)N[C@@H](Cc1ccccc1)C(=O)N[C@H]1CSSC[C@@H](C(=O)N[C@H](C(=O)NCCN)C(C)(C)C)NC(=O)[C@H](CC(N)=O)NC(=O)C(C)(C)NC(=O)[C@H](CCCNC(=N)N)NC(=O)[C@H](CCCCN)NC1=O [PSM-0221] ({DOTA-4Amb}-[Aib]FCKR[Aib]NC[Tle]-Ethylenediamine; disulfide 3-8)", "PSMA-expressing C4-2 cells (Homo sapiens)", "< 200 nM"),
]

====

tested on: PC3-PIP tumor model; parameters: species or system mice; settings: mouse, in vivo
Numbered stars: 1 amine (or outer) side, 2 acyl side, 3 side chain; on linkers, the order of the positions; unused ones are H or OH. Bridge positions count the residues as written; N and C are the ends. Square brackets hold non-standard residues; d marks the D form. Side chains are listed from the residue outwards. Peptide text beside a SMILES is read from it. * marks the point of attachment. DOTA = O=C(O)CN1CCN(CC(=O)O)CCN(CC(=O)*)CCN(CC(=O)O)CC1; Phe(4-Cl) = N[C@@H](Cc1ccc(Cl)cc1)C(=O)O; Ethylenediamine = C(CN[*:2])N[*:1]; X1 = O=C(CC1CCN([*:1])CC1)[*:2]; Tle = CC(C)(C)[C@H](N)C(=O)O; Propanoyl(3-OH) = O=C(CCO)*; Aib = CC(C)(N)C(=O)O; CO = O=C([*:1])[*:2]; NHBu = CCCCN*
// NB: equality with 1 counts as false; only AUC ratio [T/K] strictly below is true

# compound, system.tested, label
records = [
    ("CCCCNC(=O)N[C@H](C(=O)NC(C)(C)C(=O)N[C@@H](Cc1ccc(Cl)cc1)C(=O)N[C@H]1CSSC[C@@H](C(=O)N[C@H](C(=O)N[C@H](C(=O)N2CCC(CC(=O)N[C@H](CCCCNC(=O)CN3CCN(CC(=O)O)CCN(CC(=O)O)CCN(CC(=O)O)CC3)C(N)=O)CC2)[C@@H](C)O)C(C)(C)C)NC(=O)[C@H](CC(N)=O)NC(=O)C(C)(C)NC(=O)[C@H](CCCNC(=N)N)NC(=O)[C@H](CCCCN)NC1=O)[C@@H](C)O [PSM-0371] ({NHBu-CO}-T[Aib][Phe(4-Cl)]CKR[Aib]NC[Tle]T[X1][dK](DOTA)-NH2; disulfide 4-9)", "PC3-PIP tumor model", "true"),
    ("C[C@@H](O)[C@H](NC(=O)[C@@H](NC(=O)[C@@H]1CSSC[C@H](NC(=O)[C@H](Cc2ccc(Cl)cc2)NC(=O)C(C)(C)NC(=O)CCO)C(=O)N[C@@H](CCCCN)C(=O)N[C@@H](CCCNC(=N)N)C(=O)NC(C)(C)C(=O)N[C@@H](CC(N)=O)C(=O)N1)C(C)(C)C)C(=O)N[C@H](CCCCNC(=O)CN1CCN(CC(=O)O)CCN(CC(=O)O)CCN(CC(=O)O)CC1)C(N)=O [PSM-0267] ({Propanoyl(3-OH)}-[Aib][Phe(4-Cl)]CKR[Aib]NC[Tle]T[dK](DOTA)-NH2; disulfide 3-8)", "PC3-PIP tumor model", "false"),
    ("CCNC(=O)NC(=N)NCCC[C@@H]1NC(=O)[C@H](CCCCN)NC(=O)[C@@H](NC(=O)[C@H](Cc2ccc(Cl)cc2)NC(=O)C(C)(C)NC(=O)[C@@H](NC(=O)CC2CCN(C(=O)CN3CCN(CC(=O)O)CCN(CC(=O)O)CCN(CC(=O)O)CC3)CC2)[C@@H](C)O)CSSC[C@@H](C(=O)N[C@H](C(=O)N[C@H](C(N)=O)[C@@H](C)O)C(C)(C)C)NC(=O)[C@H](CC(N)=O)NC(=O)C(C)(C)NC1=O [PSM-0579] ({DOTA}-[X1]T[Aib][Phe(4-Cl)]CKR([CO-NHEt])[Aib]NC[Tle]T-NH2; disulfide 5-10)", "PC3-PIP tumor model", "true"),
    ("C[C@@H](O)[C@H](NC(=O)CC1CCN(C(=O)CN2CCN(CC(=O)O)CCN(CC(=O)O)CCN(CC(=O)O)CC2)CC1)C(=O)NC(C)(C)C(=O)N[C@@H](Cc1ccc(Cl)cc1)C(=O)N[C@H]1CSSC[C@@H](C(=O)N[C@H](C(N)=O)C(C)(C)C)NC(=O)[C@H](CC(N)=O)NC(=O)C(C)(C)NC(=O)[C@H](CCCNC(=N)N)NC(=O)[C@H](CCCCN)NC1=O [PSM-0433] ({DOTA}-[X1]T[Aib][Phe(4-Cl)]CKR[Aib]NC[Tle]-NH2; disulfide 5-10)", "PC3-PIP tumor model", "false"),
    ("CC(=O)NC(C)(C)C(=O)N[C@@H](Cc1ccc(Cl)cc1)C(=O)N[C@H]1CSSC[C@@H](C(=O)N[C@H](C(=O)NCCNC(=O)CN2CCN(CC(=O)O)CCN(CC(=O)O)CCN(CC(=O)O)CC2)C(C)(C)C)NC(=O)[C@H](CC(N)=O)NC(=O)C(C)(C)NC(=O)[C@H](CCCNC(=N)N)NC(=O)[C@H](CCCCN)NC1=O [PSM-0516] (Ac-[Aib][Phe(4-Cl)]CKR[Aib]NC[Tle]-{Ethylenediamine-DOTA}; disulfide 3-8)", "PC3-PIP tumor model", "false"),
]
